All figures here come from the RNAGym collection of RNA variant scans (doi:10.7554/elife.80360).

B1: HDV Ribozyme (parent)
chain: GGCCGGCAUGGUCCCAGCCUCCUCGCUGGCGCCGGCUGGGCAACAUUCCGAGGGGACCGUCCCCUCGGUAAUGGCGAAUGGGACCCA

variants of: B1; assay: self-cleavage, relative activity (ratio to wild type); higher = more cleavage; co-transcriptional
MEASURED ATTRIBUTE: self-cleavage
Note: the reply should be a number with no unit written.

Would you please look over these solved cases?
ALTERATION	EXPERIMENTAL VALUE
G40U A42U	0.496
G76U A87G	1.13
U9G C41U	0.997
C21G C24G	0.0504
C36U A45G	0.522
C26A A78C	0.284
G39A U65G	0.264
G1C A56C	0.172

Would you mind telling me what self-cleavage value was observed for C7G C85A ? 0.302

Would you mind telling me what self-cleavage value was observed for C64A C86A ? 0.942

Would you mind telling me what self-cleavage value was observed for C13G G52C ? 0.0475

Would you mind telling me what self-cleavage value was observed for G17U A43G ? 0.237
